- target or test system: T1, recombinant human TSLP (hTSLP)-Fc (human, UniProt Q969D9 29-159, limits assumed)
- T1 construct: used for yeast surface display labelling; also called rhTSLP; not shown: Fc
- experiment description: yeast surface display flow cytometry, 10 nM hTSLP-Fc; MFI normalized to expression and to the positive control
measure name: binding result

[[record]]
binder = "C13 (scFv, V domains shown, also called C13-VH-L-VL) VH: QMQLVESGGGVVQPGRSLRLSCAASGFTFRTYGMHWVRQAPGKGLEWVAVIWYDGSNKHYADSVKGRFTITRDNSKNTLNLQMNSLRAEDTAVYYCARAPQWELVAEAFDLWGQGTMVTVSS VL: SYVLTQPPSVSVAPGQTARITCGGNLLGSKLVHWYQQKPGQAPVLVVYDDGDRPSLIPERFSGSNSGNTATLTISRVEAGDEADYYCQVWDTSSDHVVFGGGTKLTVL"
measure_name = "binding result"
assay_value = "binds"

[[record]]
binder = "C37 (scFv, V domains shown, also called C37-VH-L-VL) VH: QMQLVESGGGVVQPGRSLRLSCAASGFTFRTYGMHWVRQAPGKGLEWVAVIWYDGSNKHYADSVKGRFTITRDNSKNTLNLQMNSLRAEDTAVYYCARAPQWELVAEAFDMWGQGTMVTVSS VL: SYVLTQPPSVSVAPGQTARITCGGNLIGSKLVHWYQQKPGQAPVLVVYDDSDRPSRIPERFSGSNSGNTATLTISRVEAGDEADYYCQVWDSSSDHVVFGGGTKLTVL"
measure_name = "binding result"
assay_value = "binds"

[[record]]
binder = "C15 (scFv, V domains shown, also called C15-VH-L-VL) VH: QMQLVESGGGVVQPGRSLRLSCAASGFTFRTYGMHWVRQAPGKGLEWVAVIWYDGSNKHYADSVKGRFTITRDNSKNTLNLQMNSLRAEDTAVYYCARAPQWELVAEAFDLWGQGTMVTVSS VL: SYVLTQPPSVSVAPGQTARITCGGNLIGSKLVHWYQQKPGQAPVLVVYDDGDRPSWIPERFSGSNSGNTATLTISRVEAGDEADYYCQVWDSGSDGVVFGGGTKLTVL"
measure_name = "binding result"
assay_value = "binds"

[[record]]
binder = "C43 (scFv, V domains shown, also called C43-VH-L-VL) VH: QMQLVESGGGVVQPGRSLRLSCAASGFTFRTYGMHWVRQAPGKGLEWVAVIWYDGSNKHYADSVKGRFTITRDNSKNTLNLQMNSLRAEDTAVYYCARAPQWQLVAEAFDIWGQGTMVTVSS VL: SYVLTQPPSVSVAPGQTARITCGGNLIGSKLVHWYQQKPGQAPVLVVYDDSDRPSAIPERFSGSNSGNTATLTISRVEAGDEADYYCQVWDTSSDGVVFGGGTKLTVL"
measure_name = "binding result"
assay_value = "binds"


src = patent US20240101675A1
